Data credit: the supplement of paper PMC6555819

System: LXRb homodimer (NR concentration 270 nM)
experiment: PBM binding z-score (relative to random genomic background probes); higher = stronger binding; sequences stand for … in GC…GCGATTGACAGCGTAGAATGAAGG
Examples of sequences with documented PBM binding z-score follow.
Would you mind answering with just the numeric figure?

Let me know recorded PBM binding z-score for `AGTCAAAGTTCAGGACAAGGTAACGTAAAGCACG` , thanks.
0.548

Fill in reported PBM binding z-score for this entry: `CCGACTGGGGCAAGGTTACTATAACGCACAGCCA`
-0.963

---

Test system: RXRa DBDmut IVT, anti-RXR (DBD mutation: RXRa K156A/R161A, NR concentration 90 nM)
experiment: PBM binding z-score (relative to random genomic background probes); higher = stronger binding; sequences stand for … in GC…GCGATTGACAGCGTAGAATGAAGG
readout: PBM binding z-score
Answer with a bare number; do not write a unit.

Illustrative cases are given below, each with its answer.
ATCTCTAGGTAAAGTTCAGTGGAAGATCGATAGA
1.74
CCTAGCAGGCCAATCTGGGTCACTCCAGGCTTGA
-0.206
CCTCGGAGGACAGAAGGTTAGAGCTGTCCGCTTT
-0.0367
ATATGTAGATTAGCTGGGGTCATTCAGACTAGGC
1.87
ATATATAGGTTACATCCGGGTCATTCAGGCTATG
1.57

Now for another entry.
Find the measured PBM binding z-score of `CAAACTCGGTCACGAAAGGTCAAAGTCGAATGAC` with RXRa DBDmut IVT, anti-RXR (DBD mutation: RXRa K156A/R161A, NR concentration 90 nM) as test system.
1.9

---

Tested on: THRa:RXRa (NR concentration 90 nM, RXRa partner concentration 90 nM)
experiment: PBM binding z-score (relative to random genomic background probes); higher = stronger binding; sequences stand for … in GC…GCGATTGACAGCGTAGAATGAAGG
readout: PBM binding z-score
Number only, please.

Examples with their reported PBM binding z-score follow.
ATCGAAAGCTCGACGAGGTGAGTATACACCGTTT
1.02
ATATGTAGGTTAGCTGGGGACATTCAGACTAGGC
4.93
CCTCGGAGGACAACAGGAGTTCAGAGCTGCCAGA
1.17
CCTTACGGGTCACTCACAGGTTATAGCATTTGGA
3.07

Kindly consider the entry below.
Param request: PBM binding z-score | system THRa:RXRa (NR concentration 90 nM, RXRa partner concentration 90 nM) | item `CGTCCAAGGTGATAGGAGGTCAGTGAAGACAGAT`
4.34

---

Test system: VDR:RXRa (NR concentration 270 nM, RXRa partner concentration 90 nM)
experiment: PBM binding z-score (relative to random genomic background probes); higher = stronger binding; sequences stand for … in GC…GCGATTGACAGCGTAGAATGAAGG
Each item that follows carries a reported PBM binding z-score.

Worked cases, PBM binding z-score given:
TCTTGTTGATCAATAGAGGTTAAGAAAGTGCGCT
1.69
GTTAGTTGGTCAGTAAAAGGTCACACACCGGTCG
4.28
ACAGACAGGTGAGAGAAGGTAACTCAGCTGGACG
-0.382
AGAATGAGGTTAAGATCAGGGAAACAGAATACAT
1.19
ATATGGAGGTTACATCCGGGTCATTCAGGCTATG
5.05
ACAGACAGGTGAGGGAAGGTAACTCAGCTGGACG
-0.405
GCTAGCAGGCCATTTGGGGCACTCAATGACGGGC
-0.555
GGAACGAGGGCATTCGCGTTGATAGCATGGCGAT
1.53
CGACCTAGGTCATTGACAGGACAGTGAATAGTAA
2.97
CCGACTGGGTCAAGGTTACCATAACGCACAGCCA
2.05

Specify PBM binding z-score for `CGTCCAAGGTCAAAGGTCAGTGAAGAGATGACGG` and stop.
6.76
